System: OVCAR-5 ovarian
experimentDescription: NCI tumour cell line growth inhibition, 48 h; in the data active = GI50 below about 0.43 µM; inactive = the rest
Outcomes: yes (active), no (inactive)

compound: C[C@@H](C(=O)Nc1ccc(Cl)cc1)C1CCC(c2ccnc3ccc(F)cc23)CC1 (stereo partly drawn)
cat: no
//
compound: C=C1C(O)C2(O)OCC34C(CC5C(C)=CC(=O)C(O)C5(C)C23)OC(=O)C(OC(=O)C/C=C(\C)CCCCC)C14 (stereo not drawn)
cat: yes
//
compound: Cc1[c-]onc1C.Cc1[c-]onc1C.[Ag].[Ag].[NH-]S(=O)(=O)c1ccc(N=Nc2cc(N=Nc3ccc(S([NH-])(=O)=O)cc3)c3c(NC(=O)C(Cl)Cl)cccc3c2OC(=O)C(Cl)Cl)cc1
cat: no

###

System: MDA-MB-435
experimentDescription: NCI tumour cell line growth inhibition, 48 h

compound: Cc1cc2c(C)cc(=O)[nH]c2cc1N
relationalOperator: >
TGI, µM: 100

compound: O=C1C(c2c(O)[nH]c3ccc(S(=O)(=O)O)cc23)=Nc2ccccc21
relationalOperator: >
TGI, µM: 100

compound: O=C(O)[C@@H]1C[C@@H](O)CN1C(=O)OCc1ccccc1
relationalOperator: >
TGI, µM: 100

compound: CC(C)=C[C@@H]1C[C@H](n2cc(C)c(=O)[nH]c2=O)ON1CCO
relationalOperator: >
TGI, µM: 100

compound: O=C(CC(=O)CC(O)(C(F)(F)F)C(F)(F)F)CC(O)(C(F)(F)F)C(F)(F)F
relationalOperator: >
TGI, µM: 10

compound: CCSC1=CC(=O)c2nc3ccccc3c3ccnc1c23
relationalOperator: =
TGI, µM: 3.43

compound: CNC(=O)c1cncc(/C=C/c2ccccc2C)c1
relationalOperator: >
TGI, µM: 25

compound: C=C1C(=O)O[C@H]2[C@H]1CC/C(COC(=O)NCc1ccccc1OC)=C\CC[C@@]1(C)O[C@@H]21
relationalOperator: =
TGI, µM: 4.86

compound: CCN(CC)S(=O)(=O)c1ccc(OC)c(Nc2ncc(-c3ccccc3)o2)c1
relationalOperator: >
TGI, µM: 25

compound: CC(C)=CCc1c2c(c3occ(-c4ccc(O)c(O)c4)c(=O)c3c1O)C=CC(C)(C)O2
relationalOperator: =
TGI, µM: 3.2

compound: COc1ccc(/C(=N/O)c2ccccc2-c2nc3ccccc3c(=O)n2-c2ccc(S(=O)(=O)Nc3ncccn3)cc2)cc1C
relationalOperator: =
TGI, µM: 27.3

compound: CN1CCN(CCc2cccc(C(=O)c3cnn(-c4ccc(F)cc4)c3N)c2)CC1
relationalOperator: >
TGI, µM: 25

compound: C=C1C(O)C2(O)OCC34C(CC5C(C)=CC(=O)C(O)C5(C)C23)OC(=O)C(OC(=O)C/C=C(\C)CCCCC)C14 (stereo not given)
relationalOperator: =
TGI, µM: 0.00221

compound: Cc1cc(-c2nc3c(O)cccc3s2)ccc1N
relationalOperator: =
TGI, µM: 38.2

compound: COc1ccc(CC(CO)NC(=O)OCc2ccccc2)cc1Oc1ccc(CC(CO)NC(=O)OCc2ccccc2)cc1 (stereo not given)
relationalOperator: >
TGI, µM: 100

compound: CCN(CC)CCOC(NC(C)=O)(c1ccccc1)c1ccccc1
relationalOperator: >
TGI, µM: 100

compound: Cc1nn(C(=O)Cc2ccccc2)c2c1C(c1ccccc1O)SC(N)=N2 (stereo not given)
relationalOperator: >
TGI, µM: 100

compound: CC1(C)C(c2ccccc2)=[N+]([O-])C(C)(C)N1O
relationalOperator: >
TGI, µM: 10

compound: CNC(=O)n1ccc2cc(Oc3ccnc(NC(=O)c4ccc(C5CCN(CCO)CC5)cc4)c3)c(OCCOC)cc21
relationalOperator: =
TGI, µM: 11.8

compound: O=C1c2ccccc2-c2c1c1ccccc1c(=O)n2CCCNCCCNCCCn1c2c(c3ccccc3c1=O)C(=O)c1ccccc1-2
relationalOperator: =
TGI, µM: 2.26
